Test system: Leishmania donovani
assay_summary: Inhibition of Leishmania donovani CRK3/CYC6 activity expressed in Escherichia coli using 15 uM ATP at 30 uM
observable: inhibition (%)

{"compound": "CC(C)c1n[nH]c2c(NCc3ccccc3O)ncnc12", "observable": "inhibition", "numeric_readout": 68}
{"compound": "CC(C)n1cnc2c(Nc3cccc(F)c3)ncnc21", "observable": "inhibition", "numeric_readout": 30.4}
{"compound": "CC(C)c1n[nH]c2c(NC3CCC(N)CC3)ncnc12 (stereo not given)", "observable": "inhibition", "numeric_readout": 35}
{"compound": "CC(C)n1cnc2c(NC34CC5CC(CC(C5)C3)C4)ncnc21", "observable": "inhibition", "numeric_readout": 66.1}
{"compound": "COc1ccc(CNc2ncnc3c2ncn3C(C)C)cc1O", "observable": "inhibition", "numeric_readout": 11.2}

A = CC(C)n1cnc2c(NCc3cccc(O)c3)ncnc21
B = COc1ccc(CNc2ncnc3c2ncn3C(C)C)cc1
Record comparison, field inhibition: mark the lower of A and B . Identify your pick by its label. B

a = CC(C)n1cnc2c(NCc3ccccc3N)ncnc21
b = CC(C)c1n[nH]c2c(Nc3ccc(F)cc3)ncnc12
Record comparison, field inhibition: mark the lower of a and b . Identify your pick by its label. a
